Each item that follows carries a reported pIC50.
molecular target: TRKA (Homo sapiens, UniProt P04629); construct: aa 441-; 4 nM; 40 uM; 35 min; (NTRK1); 796; His; test: Isolated TRK enzyme assay (HTRF KinEASE-TK kit, PV3144 TrkA enzyme assay); conditions: recombinant His-tagged cytoplasmic domain aa 441-796, 4 nM enzyme, 40 uM ATP, 35 min, arithmetic mean where more than one reading
Sequence (P04629 441-796): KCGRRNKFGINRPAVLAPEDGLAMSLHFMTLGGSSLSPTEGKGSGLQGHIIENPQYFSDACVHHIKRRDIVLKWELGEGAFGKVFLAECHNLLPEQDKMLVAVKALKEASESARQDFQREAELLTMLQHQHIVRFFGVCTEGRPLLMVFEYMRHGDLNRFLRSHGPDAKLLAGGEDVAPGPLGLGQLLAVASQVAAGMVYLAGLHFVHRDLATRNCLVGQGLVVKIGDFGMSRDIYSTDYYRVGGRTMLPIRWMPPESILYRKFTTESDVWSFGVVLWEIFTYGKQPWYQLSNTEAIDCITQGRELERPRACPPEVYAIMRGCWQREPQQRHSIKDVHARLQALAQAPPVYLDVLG
Scale for pIC50: -log10 of concentration given in mol/L; no unit attached.

// known answers, use as guide
CC1(C)CN(C(=O)Cc2ccc(OC(F)(F)F)cc2)C[C@@H]1Oc1cc(C(N)=O)cnc1N :: 7.93
C[C@H]1CN(C(=O)Cc2ccc(OC(F)(F)F)cc2)C[C@@H]1Oc1cc(C(=O)NCC#N)cnc1N :: 6.48

Problem: Can you look up pIC50 on TRKA (Homo sapiens, UniProt P04629) for `CCNC(=O)c1cnc(N)c(O[C@H]2CN(C(=O)Cc3ccc(OC(F)(F)F)cc3)C[C@@H]2C)c1` ?
Solution: 6.90

Problem: Can you look up pIC50 on TRKA (Homo sapiens, UniProt P04629) for Nc1ncc(C(=O)NCCO)cc1OC1CN(C(=O)Cc2ccc(OC(F)(F)F)cc2)CC1(F)F (single isomer, unassigned) ?
Solution: 6.83
